# EXPERIMENT NOTES: Inhibition of FLT3 ITD mutant in human MOLM13 cells assessed as reduction in cell viability incubated for 72 hrs by MTT assay
VALUE TYPE: IC50 (µM)
Answers are plain numbers, in µM.

Noted for Cc1cnc(Nc2ccc3c(c2)CCN(CC#N)C3)nc1-c1cnn(C(C)C)c1 : its IC50 reads 0.647

Noted for Cc1ccc(C(=O)CCC(=O)N2CCc3cc(Nc4ncc(C)c(-c5cnn(C(C)C)c5)n4)ccc3C2)cc1 : its IC50 reads 1.05

Noted for Cc1cnc(Nc2ccc3c(c2)CCN(C(=O)CCCN(C)C)C3)nc1-c1cnn(C(C)C)c1 : its IC50 reads 1.48

Noted for Cc1cnc(Nc2ccc3c(c2)CCN(C/C=C/C(=O)NC(C)(C)C)C3)nc1-c1cnn(C(C)C)c1 : its IC50 reads 1.05

Noted for Cc1ccc(C(=O)/C=C/C(=O)N2CCc3cc(Nc4ncc(C)c(-c5cnn(C(C)C)c5)n4)ccc3C2)cc1 : its IC50 reads 0.758

Noted for Cc1cnc(Nc2ccc3c(c2)CN(CCO)C3)nc1-c1cnn(C(C)C)c1 : its IC50 reads 1.78

Please give IC50 for each item listed below.
1. C#CCN1CCc2cc(Nc3ncc(C)c(-c4cnn(C(C)C)c4)n3)ccc2C1
2. CCOCCN1CCc2cc(Nc3ncc(C)c(-c4cnn(C(C)C)c4)n3)ccc2C1
3. Cc1cnc(Nc2ccc3c(c2)CCN(CCCO)C3)nc1-c1cnn(C(C)C)c1
4. COC(=O)CCCN1CCc2cc(Nc3ncc(C)c(-c4cnn(C(C)C)c4)n3)ccc2C1
5. Cc1cnc(Nc2ccc3c(c2)CCN(CCCCCO)C3)nc1-c1cnn(C(C)C)c1
6. CC(C)n1cc(-c2nc(Nc3ccc4c(c3)CCN(CCCCCO)C4)ncc2F)cn1
7. COC(=O)/C=C/CN1CCc2cc(Nc3ncc(C)c(-c4cnn(C(C)C)c4)n3)ccc2C1

### Response
1.48
0.568
1.32
1.29
0.965
0.353
0.497

* * *

Kindly supply the reported pIC50 values for the records listed here.
# EXPERIMENT NOTES: Inhibition of FLT3 ITD mutant in human MOLM13 cells assessed as reduction in cell viability incubated for 72 hrs by MTT assay
Numbers only, as −log10 of the molar value.

For orientation, consider the following solved cases.
Noted for Cc1cnc(Nc2ccc3c(c2)CCN(C/C=C/C(=O)O)C3)nc1-c1cnn(C(C)C)c1 : its pIC50 reads 6.07

Noted for Cc1cnc(Nc2ccc(N3CCC(N(C)CCO)CC3)c(F)c2)nc1-c1cnn(C(C)C)c1 : its pIC50 reads 7.14

Noted for Cc1cnc(Nc2ccc3c(c2)CCN3CCO)nc1-c1cnn(C(C)C)c1 : its pIC50 reads 5.69

Noted for Cc1cnc(Nc2ccc3c(c2)CCN(C(=O)/C=C/CN(C)C)C3)nc1-c1cnn(C(C)C)c1 : its pIC50 reads 6.06

Noted for CC#CCN1CCc2cc(Nc3ncc(C)c(-c4cnn(C(C)C)c4)n3)ccc2C1 : its pIC50 reads 5.81

Please give pIC50 for each item listed below.
1. CCCNC(=O)N1CCc2cc(Nc3ncc(C)c(-c4cnn(C(C)C)c4)n3)ccc2C1
2. CCNC(=O)N1CCc2cc(Nc3ncc(C)c(-c4cnn(C(C)C)c4)n3)ccc2C1
3. Cc1cnc(Nc2ccc3c(n2)CCN(CCCO)C3)nc1-c1cnn(C(C)C)c1
4. CCCCN1CCc2cc(Nc3ncc(C)c(-c4cnn(C(C)C)c4)n3)ccc2C1

### Response
[5.68, 5.97, 5.59, 6.12]
